Values of IC50 for Xanthine dehydrogenase/oxidase (Homo sapiens), collected from a number of published sources:
parameter measured: IC50 (µM)

{"compound": "C/C(=N\\OC(=O)Cc1ccccc1)c1nc2ccccc2[nH]1", "unit annotation": "µM", "readout qualifier": ">", "endpoint result": 50}
{"compound": "N#Cc1cnn(-c2ccc(C(=O)O)cc2)c1N", "unit annotation": "µM", "readout qualifier": "=", "endpoint result": 36.1}
{"compound": "Nc1nc2nc[nH]c2c(=S)[nH]1", "unit annotation": "µM", "readout qualifier": "=", "endpoint result": 92.4}
{"compound": "Cc1c(C)c2c(c(C)c1O)CCC(C)(C(=O)O)O2 (stereo unspecified)", "unit annotation": "µM", "readout qualifier": ">", "endpoint result": 1000}
{"compound": "CC(=O)Nc1nc(-c2ccccc2)cc(=O)[nH]1", "unit annotation": "µM", "readout qualifier": ">", "endpoint result": 100}
{"compound": "COc1ccccc1C(=O)O/N=C(\\C)c1nc2ccccc2o1", "unit annotation": "µM", "readout qualifier": "=", "endpoint result": 15.2}

----------
Values of IC50 for Xanthine dehydrogenase/oxidase (Homo sapiens, UniProt P47989), collected from a number of published sources:
parameter measured: IC50 (µM)

{"molecule": "CC(C)COc1ccc(-c2cc(O)nc(N)n2)cc1[N+](=O)[O-]", "test system": "Xanthine dehydrogenase/oxidase (Homo sapiens, UniProt P47989)", "readout qualifier": "=", "endpoint result": 0.14}
{"molecule": "CCCCS(=O)(=O)N/N=C(\\C)c1nc2ccccc2o1", "test system": "Xanthine dehydrogenase/oxidase (Homo sapiens, UniProt P47989)", "readout qualifier": ">", "endpoint result": 50}
{"molecule": "Nc1nc(-c2ccc(O)cc2)cc(=O)[nH]1", "test system": "Xanthine dehydrogenase/oxidase (Homo sapiens, UniProt P47989)", "readout qualifier": ">", "endpoint result": 30}
{"molecule": "CCOc1ccc(CNC(=O)c2ccc(-c3nnn[nH]3)cc2)cc1", "test system": "Xanthine dehydrogenase/oxidase (Homo sapiens, UniProt P47989)", "readout qualifier": "=", "endpoint result": 0.37}
{"molecule": "Nc1nc(O)cc(-c2ccc(Oc3ccccc3)cc2)n1", "test system": "Xanthine dehydrogenase/oxidase (Homo sapiens, UniProt P47989)", "readout qualifier": "=", "endpoint result": 2.47}
{"molecule": "N#Cc1ccc(-n2ncc3c(N)ncnc32)cc1", "test system": "Xanthine dehydrogenase/oxidase (Homo sapiens, UniProt P47989)", "readout qualifier": "=", "endpoint result": 0.4}
{"molecule": "C/C(=N\\NS(=O)(=O)c1ccccc1)c1nc2ccccc2o1", "test system": "Xanthine dehydrogenase/oxidase (Homo sapiens, UniProt P47989)", "readout qualifier": ">", "endpoint result": 50}
{"molecule": "COc1ccc(-n2ncc3c(N)ncnc32)cc1", "test system": "Xanthine dehydrogenase/oxidase (Homo sapiens, UniProt P47989)", "readout qualifier": "=", "endpoint result": 19.6}
{"molecule": "O=C(O)CCCCCCOc1ccc(-c2cc(=O)c3c(O)cc(O)cc3o2)cc1", "test system": "Xanthine dehydrogenase/oxidase (Homo sapiens, UniProt P47989)", "readout qualifier": "=", "endpoint result": 0.098}
{"molecule": "COc1ccc(-c2cnc3nc[nH]c(=O)c3n2)cc1", "test system": "Xanthine dehydrogenase/oxidase (Homo sapiens, UniProt P47989)", "readout qualifier": "=", "endpoint result": 15.8}
{"molecule": "C[C@@H]1O[C@@H](OC[C@H]2O[C@@H](Oc3cc(O)c4c(=O)c(O)c(-c5cc(O)c(O)c(O)c5)oc4c3)[C@H](O)[C@@H](O)[C@@H]2O)[C@H](O)[C@H](O)[C@H]1O", "test system": "Xanthine dehydrogenase/oxidase (Homo sapiens, UniProt P47989)", "readout qualifier": "=", "endpoint result": 6.13}
{"molecule": "CC(C)(C)c1ccc(Cn2cc(C#N)c3cc(NC(=O)c4cc(=O)[nH]cn4)ccc32)cc1", "test system": "Xanthine dehydrogenase/oxidase (Homo sapiens, UniProt P47989)", "readout qualifier": ">", "endpoint result": 10}
{"molecule": "CC(C)=CCn1cc(C#N)c2ccc(NC(=O)c3cc(=O)[nH]cn3)cc21", "test system": "Xanthine dehydrogenase/oxidase (Homo sapiens, UniProt P47989)", "readout qualifier": ">", "endpoint result": 10}
{"molecule": "O=C(O)CCCCCCCOc1ccc(-c2cc(=O)c3c(O)cc(O)cc3o2)cc1", "test system": "Xanthine dehydrogenase/oxidase (Homo sapiens, UniProt P47989)", "readout qualifier": "=", "endpoint result": 0.25}
{"molecule": "COc1cc(/C=C/c2ccc(O)cc2)cc(O[C@@H]2O[C@H](CO[C@@H]3O[C@@H](C)[C@H](O)[C@@H](O)[C@H]3O)[C@@H](O)[C@H](O)[C@H]2O[C@@H]2O[C@@H](C)[C@H](O)[C@@H](O)[C@H]2O)c1", "test system": "Xanthine dehydrogenase/oxidase (Homo sapiens, UniProt P47989)", "readout qualifier": "=", "endpoint result": 178}
{"molecule": "O[C@@H]1[C@@H](O)[C@@H](OC/C=C/c2ccccc2)O[C@H](CO[C@@H]2OC[C@H](O)[C@H](O)[C@H]2O)[C@H]1O", "test system": "Xanthine dehydrogenase/oxidase (Homo sapiens, UniProt P47989)", "readout qualifier": ">", "endpoint result": 117}
{"molecule": "Nc1nc(O)cc(-c2ccc(N3CCOCC3)cc2)n1", "test system": "Xanthine dehydrogenase/oxidase (Homo sapiens, UniProt P47989)", "readout qualifier": "=", "endpoint result": 16.5}
{"molecule": "O/N=C(\\Cc1ccc(F)cc1)c1nc2ccc(Br)cc2o1", "test system": "Xanthine dehydrogenase/oxidase (Homo sapiens, UniProt P47989)", "readout qualifier": ">", "endpoint result": 100}
{"molecule": "CCC(C)C(=O)C1=C(O)[C@]2(C[C@H]3[C@H](CC[C@@]3(C)O)[C@](C)(O)C2)C(=O)[C@](C)(CC=C(C)C)C1=O (stereo not given in full)", "test system": "Xanthine dehydrogenase/oxidase (Homo sapiens, UniProt P47989)", "readout qualifier": "=", "endpoint result": 42.1}
{"molecule": "COC(=O)c1ccc(O)cc1", "test system": "Xanthine dehydrogenase/oxidase (Homo sapiens, UniProt P47989)", "readout qualifier": ">", "endpoint result": 50}
{"molecule": "O=c1ccc2cc(O)c(O)cc2o1", "test system": "Xanthine dehydrogenase/oxidase (Homo sapiens, UniProt P47989)", "readout qualifier": "=", "endpoint result": 8.2}
{"molecule": "O=C(O)CCCCOc1cc(O)c2c(=O)cc(-c3ccc(O)cc3)oc2c1", "test system": "Xanthine dehydrogenase/oxidase (Homo sapiens, UniProt P47989)", "readout qualifier": ">", "endpoint result": 100}
{"molecule": "N#Cc1cn(CC2CC2)c2cc(NC(=O)c3cc(=O)[nH]cn3)ccc12", "test system": "Xanthine dehydrogenase/oxidase (Homo sapiens, UniProt P47989)", "readout qualifier": ">", "endpoint result": 10}
{"molecule": "O=C(/C=C/c1ccc(O)cc1)O[C@@H]1[C@@H](Oc2ccc(-c3cc(=O)c4c(O)cc(O)cc4o3)cc2)O[C@@H](CO)[C@H](O)[C@H]1O", "test system": "Xanthine dehydrogenase/oxidase (Homo sapiens, UniProt P47989)", "readout qualifier": "=", "endpoint result": 24}
{"molecule": "CCOc1ccc(OCC)c(C(=O)/C=C/c2ccc(C)s2)c1", "test system": "Xanthine dehydrogenase/oxidase (Homo sapiens, UniProt P47989)", "readout qualifier": "=", "endpoint result": 21.3}
{"molecule": "O=C(O)CCCOc1cc(O)c2c(=O)cc(-c3ccc(O)cc3)oc2c1", "test system": "Xanthine dehydrogenase/oxidase (Homo sapiens, UniProt P47989)", "readout qualifier": ">", "endpoint result": 100}
{"molecule": "C/C(=N\\NS(=O)(=O)c1ccc(Br)cc1)c1nc2ccccc2o1", "test system": "Xanthine dehydrogenase/oxidase (Homo sapiens, UniProt P47989)", "readout qualifier": ">", "endpoint result": 50}
{"molecule": "c1ncc(-c2ccc(-c3nnn[nH]3)cc2)cn1", "test system": "Xanthine dehydrogenase/oxidase (Homo sapiens, UniProt P47989)", "readout qualifier": "=", "endpoint result": 0.92}
{"molecule": "O=c1c(O[C@@H]2O[C@H](CO)C(O)[C@H](O)[C@H]2O)c(-c2ccc(O)c(O)c2)oc2cc(O)cc(O)c12 (single isomer, unassigned)", "test system": "Xanthine dehydrogenase/oxidase (Homo sapiens, UniProt P47989)", "readout qualifier": "=", "endpoint result": 26.3}
{"molecule": "O=Cc1cc(Cl)ccc1-c1ccc(-c2nnn[nH]2)cc1", "test system": "Xanthine dehydrogenase/oxidase (Homo sapiens, UniProt P47989)", "readout qualifier": "=", "endpoint result": 0.54}
{"molecule": "Cc1cc(=O)oc2cc(O)c(O)cc12", "test system": "Xanthine dehydrogenase/oxidase (Homo sapiens, UniProt P47989)", "readout qualifier": "=", "endpoint result": 246}
{"molecule": "Nc1nc2c(C(=O)c3cccc([N+](=O)[O-])c3)c[nH]c2c(=O)[nH]1", "test system": "Xanthine dehydrogenase/oxidase (Homo sapiens, UniProt P47989)", "readout qualifier": "=", "endpoint result": 0.0652}
{"molecule": "O=c1c2ccccc2oc2cc(OCCCN3CCCCC3)ccc12", "test system": "Xanthine dehydrogenase/oxidase (Homo sapiens, UniProt P47989)", "readout qualifier": "=", "endpoint result": 37.8}
{"molecule": "COc1nc(N)nc2nc[nH]c12", "test system": "Xanthine dehydrogenase/oxidase (Homo sapiens, UniProt P47989)", "readout qualifier": ">", "endpoint result": 200}
{"molecule": "COc1cc(-c2cc(O)nc(N)n2)ccc1OCC(C)C", "test system": "Xanthine dehydrogenase/oxidase (Homo sapiens, UniProt P47989)", "readout qualifier": "=", "endpoint result": 0.95}
{"molecule": "O=c1ccc2ccc(O)c(O)c2o1", "test system": "Xanthine dehydrogenase/oxidase (Homo sapiens, UniProt P47989)", "readout qualifier": "=", "endpoint result": 390}
{"molecule": "O=C(O)CCCOc1ccc(-c2cc(=O)c3c(O)cc(O)cc3o2)cc1", "test system": "Xanthine dehydrogenase/oxidase (Homo sapiens, UniProt P47989)", "readout qualifier": "=", "endpoint result": 0.6}
{"molecule": "O/N=C(\\Cc1ccccc1)c1nc2ccc(Br)cc2o1", "test system": "Xanthine dehydrogenase/oxidase (Homo sapiens, UniProt P47989)", "readout qualifier": ">", "endpoint result": 100}
{"molecule": "O=c1c2ccc(O)cc2oc2cc(OCCCNC3CCCCC3)ccc12", "test system": "Xanthine dehydrogenase/oxidase (Homo sapiens, UniProt P47989)", "readout qualifier": "=", "endpoint result": 72.9}
{"molecule": "O=C(O)CCCCCOc1cc(O)c2c(=O)cc(-c3ccc(O)cc3)oc2c1", "test system": "Xanthine dehydrogenase/oxidase (Homo sapiens, UniProt P47989)", "readout qualifier": ">", "endpoint result": 100}
